Each recorded value in this set is attributed to patent US5254558A.

- Tested On: human leukocyte elastase (HLE) (Homo sapiens, UniProt P08246)
- Sequence (P08246 30-247 limits assumed): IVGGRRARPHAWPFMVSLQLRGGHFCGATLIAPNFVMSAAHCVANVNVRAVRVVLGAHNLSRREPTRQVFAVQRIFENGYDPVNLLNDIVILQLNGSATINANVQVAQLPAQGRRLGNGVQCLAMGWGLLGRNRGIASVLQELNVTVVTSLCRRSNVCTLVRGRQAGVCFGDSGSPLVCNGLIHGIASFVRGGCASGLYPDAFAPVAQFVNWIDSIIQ
- Assay Summary: Inhibition measurements: Ki against HLE on substrate methoxy-succinyl-alanyl-alanyl-prolyl-valine-p-nitroanilide
- Run Conditions: read-out: Ki, dissociation constant of the complex of inhibitor with HLE
Measured Parameter: Ki (nM)
Please respond with the number in nM and leave the unit unwritten.

q: Retrieve Ki measured for CC(C)OC(=O)Nc1cnc(-c2cccs2)n(CC(=O)NC(C(=O)C(F)(F)F)C(C)C)c1=O (stereo not shown) and print it.
a: 27
